Attribution: the NIST ThermoML archive (doi:10.1021/je400835u)

- experimental_parameters: 298.15 K; 100 kPa; Liquid; Vibrating tube method
reported_endpoint: mass density (kg/m3)

Reported mass density ( "CCCCCCCCCCCC" ) = 745.38

Reported mass density ( "CCCCCCCCCC" ) = 726.76

Reported mass density ( "CCCCC1CCCCC1" ) = 795.7

Reported mass density ( "CCCCCCCCC" ) = 714

Reported mass density ( "CCCCCCCCCCCCCC" ) = 759.57

Reported mass density ( "CCCCCCC" ) = 679.74

Reported mass density ( "CCCCCCCC" ) = 698.85

====

- experimental_parameters: 313.15 K; 100 kPa; Liquid; Vibrating tube method
reported_endpoint: mass density (kg/m3)

Reported mass density ( "CCCCCCC" ) = 666.92

Reported mass density ( "CCCCCCCC" ) = 686.63

Reported mass density ( "CCCCC1CCCCC1" ) = 784.41

Reported mass density ( "CCCCCCCCCCCC" ) = 734.48

Reported mass density ( "CCCCCCCCC" ) = 702.26

Reported mass density ( "CCCCCCCCCCCCCC" ) = 748.98

Reported mass density ( "CCCCCCCCCC" ) = 715.36

====

- experimental_parameters: 308.15 K; 100 kPa; Liquid; Falling or rolling sphere viscometry
reported_endpoint: viscosity (mPa·s)

Observe how each entry below is paired with its result.
Reported viscosity ( "CCCCCCCCC" ) = 0.604

Reported viscosity ( "CCCCCCC" ) = 0.352

Reported viscosity ( "CCCCC1CCCCC1" ) = 1.027

A: CCCCCCCC
B: CCCCCCCCCC
C: CCCCCCCCCCCCCC
D: CCCCCCCCCCCC
(Q) Reorder the items by viscosity, least to greatest. Output spec: a listing of the labels in the requested order.
(A) A, B, D, C
(A: 0.467 mPa·s, B: 0.755 mPa·s, D: 1.167 mPa·s, C: 1.729 mPa·s)

====

- experimental_parameters: 293.15 K; 100 kPa; Liquid; Vibrating tube method
reported_endpoint: mass density (kg/m3)

Reported mass density ( CCCCCCCC [octane] ) = 702.86

Reported mass density ( CCCCC1CCCCC1 [butylcyclohexane] ) = 799.44

Reported mass density ( CCCCCCCCCCCC [dodecane] ) = 749

Reported mass density ( CCCCCCCCC [nonane] ) = 717.88

Reported mass density ( CCCCCCCCCCCCCC [tetradecane] ) = 763.09

Reported mass density ( CCCCCCC [heptane] ) = 683.99

Reported mass density ( CCCCCCCCCC [decane] ) = 730.52

====

- experimental_parameters: 298.15 K; 100 kPa; Liquid; Falling or rolling sphere viscometry
reported_endpoint: viscosity (mPa·s)

Reported viscosity ( "CCCCCCCCCCCCCC" ) = 2.096

Reported viscosity ( "CCCCCCCCCC" ) = 0.864

Reported viscosity ( "CCCCCCCCCCCC" ) = 1.376

Reported viscosity ( "CCCCCCC" ) = 0.398

Reported viscosity ( "CCCCCCCCC" ) = 0.679

a: CCCCCCCC
b: CCCCC1CCCCC1
(Q) // task: argmin of viscosity over [ a , b ] Bench note: the answer is the label of the chosen record.
(A) a
(a: 0.521 mPa·s, b: 1.196 mPa·s)
